- System: Zr-75-1
- Experiment: SRB assay, breast cancer cell line Zr-75-1
- Format: cell-based
- Conditions: Homo sapiens, ZR-75-1, 48 h, read-out: In vitro anticancer activity GI50, Breast Zr-75-1
- Experimental: Single cell suspension of the tumour cells grown in tissue culture were made, cells counted and cell count adjusted to 1×10^5 to 5×10^5 cells/ml. Ninety six (96) well plates were seeded with this cell suspension, each well receiving 100 μl of it. […] Absorbance was read at 540 nm, in the microtitre-plate reader. Optical density of drug-treated cells was compared with that of control cells and cell inhibition was calculated as percent values. […]
# GI50 annotations
Answer format: numeric, µM implied, no suffix.

INSERT INTO measurements (chemical_smiles, property_measured, measurement_unit, result) VALUES
  ('COc1cc(/C(=C\c2ccc([N+](=O)[O-])cc2)C(=O)N[C@@H]2c3cc4c(cc3[C@@H](c3cc(OC)c(OC)c(OC)c3)[C@H]3C(=O)OC[C@@H]32)OCO4)cc(OC)c1OC', 'GI50', 'µM', 2.2),
  ('COc1cc(/C(=C\c2ccc(O)c([N+](=O)[O-])c2)C(=O)N[C@@H]2c3cc4c(cc3[C@@H](c3cc(OC)c(OC)c(OC)c3)[C@H]3C(=O)OC[C@@H]32)OCO4)cc(OC)c1OC', 'GI50', 'µM', 0.18);

Identify GI50 associated with the molecule `COc1ccc(/C=C(/C(=O)N[C@@H]2c3cc4c(cc3[C@@H](c3cc(OC)c(OC)c(OC)c3)[C@H]3C(=O)OC[C@@H]32)OCO4)c2cc(OC)c(OC)c(OC)c2)cc1[N+](=O)[O-]`
2.2

###

Property Measured: melting point

Sample answers from the record:
INSERT INTO measurements (chemical_smiles, result) VALUES
  ('COc1cc(/C(=C\c2ccc(O)cc2)C(=O)N[C@@H]2c3cc4c(cc3[C@@H](c3cc(OC)c(OC)c(OC)c3)[C@H]3C(=O)OC[C@@H]32)OCO4)cc(OC)c1OC', '137 to 140 °C'),
  ('COc1ccc(/C=C(/C(=O)N[C@@H]2c3cc4c(cc3[C@@H](c3cc(OC)c(OC)c(OC)c3)[C@H]3C(=O)OC[C@@H]32)OCO4)c2cc(OC)c(OC)c(OC)c2)cc1', '128 to 130 °C'),
  ('COc1cc(/C(=C\c2ccccc2[N+](=O)[O-])C(=O)N[C@@H]2c3cc4c(cc3[C@@H](c3cc(OC)c(OC)c(OC)c3)[C@H]3C(=O)OC[C@@H]32)OCO4)cc(OC)c1OC', '197 to 200 °C'),
  ('COc1ccc(/C=C(/C(=O)N[C@@H]2c3cc4c(cc3[C@@H](c3cc(OC)c(OC)c(OC)c3)[C@H]3C(=O)OC[C@@H]32)OCO4)c2cc(OC)c(OC)c(OC)c2)cc1[N+](=O)[O-]', '140 to 143 °C');

Identify melting point associated with the compound `COc1cc(/C(=C\c2cccc([N+](=O)[O-])c2)C(=O)N[C@@H]2c3cc4c(cc3[C@@H](c3cc(OC)c(OC)c(OC)c3)[C@H]3C(=O)OC[C@@H]32)OCO4)cc(OC)c1OC`
181 to 184 °C

Identify melting point associated with the compound `COc1ccccc1/C(=C\c1ccc([N+](=O)[O-])cc1)C(=O)N[C@@H]1c2cc3c(cc2[C@@H](c2cc(OC)c(OC)c(OC)c2)[C@H]2C(=O)OC[C@@H]21)OCO3`
181 to 183 °C
